assay: Pharmacokinetics study in rats, intravenous; type: in vivo, SD rats; conditions: male, SD, plasma; rat, IV, 5 mg/kg; read-out: AUC0-t
Measurement Kind: AUC(0-t) (ng·h/mL)
Numbers only here, please. The scale is ng·h/mL.

Provide AUC(0-t) value for the following compound: COc1cccc(OCCCN)c1-c1cc(Nc2cnc(C#N)cn2)n[nH]1 [LY-2606368, reference compound]
631

* * *

test: Pharmacokinetics study in rats, intravenous; assay type: in vivo, SD rats; settings: male, SD, rat, plasma, iv, 5 mg/kg, IV, 5 mg/kg, read-out: Vss
Measurement Kind: Vd
Note: state the figure and append the unit.

Identify measured Vd associated with COc1cccc(OCCCN)c1-c1cc(Nc2cnc(C#N)cn2)n[nH]1 [LY-2606368, reference compound]
9.7 L/kg

* * *

assay: Human liver S9 metabolic stability; assay type: in vitro ADME; details: human liver S9, 1 μM
Measurement Kind: half-life at 1 μM (h)
The reply should contain only the number, in h.

1) COc1cc(F)cc(OCCCN)c1-c1cc(Nc2cnc(C#N)cn2)n[nH]1 | 2.76
2) COc1cc(F)cc(OCC2(CN)CC2)c1-c1cc(Nc2cnc(C#N)cn2)n[nH]1 | 5
3) COc1cccc(OCCCN)c1-c1cc(Nc2cnc(C#N)cn2)n[nH]1 [LY-2606368, reference compound] | 1.47

# return recorded half-life at 1 μM for entry "COc1cc(Cl)cc(OCCCN)c1-c1cc(Nc2cnc(C#N)cn2)n[nH]1"
103

Tell me measured half-life at 1 μM for "COc1cc(Br)cc(OCC2(CN)CC2)c1-c1cc(Nc2cnc(C#N)cn2)n[nH]1" please.
7.99

* * *

Vd values for the compounds below.
Experiment: Pharmacokinetics study in rats, intravenous
Type: in vivo, SD rats
Conditions: male, SD, rat, plasma, iv, 10 mg/kg, IV, 10 mg/kg, read-out: Vd
Procedure: Compounds were formulated in 30% SEB-β-CD (Zhiyuan Bio-technology) with 1 molar equivalents of HCl (pH adjusted to 3-5). Male SD rats (280-350 g) were purchased from Medical Laboratory Animal Center of Guangdong. Three rats were used for each PK study. […] At various time points after compound administration, approximately 0.2˜0.3 mL of blood was collected by cutting the end of tail into tubes containing K2-EDTA. The plasma was separated via centrifugation and stored at −80° C. […]
Report only the number, with the unit L/kg understood.

Consider the reported Vd for these compounds:
1. COc1cc(Br)cc(OCCCN)c1-c1cc(Nc2cnc(C#N)cn2)n[nH]1 | 29.5
2. COc1cc(Br)cc(OCC2(CN)CC2)c1-c1cc(Nc2cnc(C#N)cn2)n[nH]1 | 46.9
3. COc1cc(Cl)cc(OCCCN)c1-c1cc(Nc2cnc(C#N)cn2)n[nH]1 | 22.1

Shift focus to the following entry.
Answer with the recorded Vd of "COc1cc(Cl)cc(OCC2(CN)CC2)c1-c1cc(Nc2cnc(C#N)cn2)n[nH]1" only.
19.2

* * *

// reported Percentage Remaining % for each item listed
assay: Human liver S9 metabolic stability; type: in vitro ADME; details: 30 min, 1 μM, 37° C.
Form entry: value (%) — number only.

Here's what some known entries look like.
1. COc1cc(Cl)cc(OCCCN)c1-c1cc(Nc2cnc(C#N)cn2)n[nH]1 | 88.45
2. COc1cc(Br)cc(OCC2(CN)CC2)c1-c1cc(Nc2cnc(C#N)cn2)n[nH]1 | 93.30
3. COc1cc(F)cc(OCCCN)c1-c1cc(Nc2cnc(C#N)cn2)n[nH]1 | 65.38

With those in mind, consider the next compound.
Let me know recorded Percentage Remaining % for "COc1cc(F)cc(OCC2(CN)CC2)c1-c1cc(Nc2cnc(C#N)cn2)n[nH]1" , thanks.
96.23

* * *

experiment: Pharmacokinetics study in rats, intravenous; assay type: in vivo, SD rats; conditions: male, SD, rat, in vivo, iv, 10 mg/kg, Vd
Measurement Kind: Vd (L/kg)
Entry rule: numbers only, all in L/kg.

Note Vd for the compound shown: "COc1cc(F)cc(OCCCN)c1-c1cc(Nc2cnc(C#N)cn2)n[nH]1"
12.3

* * *

Let's look at some compounds and their measured half-life.
assay: Pharmacokinetics study in rats, intravenous; format: in vivo, SD rats; settings: male, SD, plasma; rat, IV, 10 mg/kg; read-out: t½ (converted)
Entry rule: numbers only, all in h.

1. COc1cc(Cl)cc(OCC2(CN)CC2)c1-c1cc(Nc2cnc(C#N)cn2)n[nH]1 [Compound 14] | 4
2. COc1cc(Br)cc(OCC2(CN)CC2)c1-c1cc(Nc2cnc(C#N)cn2)n[nH]1 [Compound 15] | 7.4
3. COc1cc(Cl)cc(OCCCN)c1-c1cc(Nc2cnc(C#N)cn2)n[nH]1 [Compound 4] | 3.3

For the compound COc1cc(Br)cc(OCCCN)c1-c1cc(Nc2cnc(C#N)cn2)n[nH]1 [Compound 5] , give its reported half-life.
5.3

* * *

tested on: HT-29; experiment: Cancer cell growth inhibition assay (CellTiter-Glo), HT-29; assay type: cell-based, Human; details: 72 hours, cellular ATP content; read-out: HT-29 anti cell proliferation activity (grade)
Measurement Kind: IC50

Provide IC50, tested on HT-29, for N[C@@H]1CCCN(c2c(Br)cnc3[nH]cc(NC(=O)C4CC4)c23)C1 [GDC-0575, reference compound] .
100 to 500 nM

* * *

assay: Pharmacokinetics study in rats, intravenous; format: in vivo, SD rats; details: male, SD, plasma; rat, IV, 10 mg/kg; read-out: AUC0-inf
Measurement Kind: AUC(0-inf) (ng·h/mL)
Please respond with the number in ng·h/mL and leave the unit unwritten.

The following compounds have reported results that may help.
1) COc1cc(Cl)cc(OCC2(CN)CC2)c1-c1cc(Nc2cnc(C#N)cn2)n[nH]1 [Compound 14] | 3120
2) COc1cc(Br)cc(OCC2(CN)CC2)c1-c1cc(Nc2cnc(C#N)cn2)n[nH]1 [Compound 15] | 4980
3) COc1cc(Br)cc(OCCCN)c1-c1cc(Nc2cnc(C#N)cn2)n[nH]1 [Compound 5] | 2990

# next compound below
Look up and report measured AUC(0-inf) for this entry: COc1cc(Cl)cc(OCCCN)c1-c1cc(Nc2cnc(C#N)cn2)n[nH]1 [Compound 4]
2400

* * *

System: MDA-MB-231
Assay: Cancer cell growth inhibition assay (CellTiter-Glo), MDA-MB-231
Assay type: cell-based, Human
Conditions: Homo sapiens, MDA-MB-231; 72 hours, cellular ATP content; read-out: MDA-MB-231 anti cell proliferation activity (grade)
Method: Human cancer cell lines were purchased from American Type Culture Collection (Manassas, Va.). The trypsinized cells were diluted to required volume at densities of 44,000 cells/ml. 90 ul cell slurry was dispensed per well in 96-well flat-bottomed plates with the recommended culture medium. […] Growth inhibition was assessed by assay of cellular ATP content using CellTiter-Glo reagent to each well. Luminesce was read on Envision. […]
pIC50: −log10 of the molar value.
List of pIC50 values.

// known answers, use as guide
1) COc1cc(Br)cc(OCCCN)c1-c1cc(Nc2cnc(C#N)cn2)n[nH]1 | 7.00 to 7.30
2) COc1cc(Cl)cc(OCC2(CN)CC2)c1-c1cc(Nc2cnc(C#N)cn2)n[nH]1 | 7.30 to 8.00
3) COc1ccc(F)c(OCCCN)c1-c1cc(Nc2cnc(C#N)cn2)n[nH]1 | 6.30 to 7.00
4) COc1cc(C)cc(OCCCN)c1-c1cc(Nc2cnc(C#N)cn2)n[nH]1 | 7.30 to 8.00
5) CNCC1(COc2ccc(F)c(OC)c2-c2cc(Nc3cnc(C#N)cn3)n[nH]2)CC1 | 6.30 to 7.00

Identify the reported pIC50 for the following entry. "COc1cc(Cl)cc(OCCCN)c1-c1cc(Nc2cnc(C#N)cn2)n[nH]1"
7.30 to 8.00

State, in one line, measured pIC50 of "COc1cc(Br)cc(OCC2(CN)CC2)c1-c1cc(Nc2cnc(C#N)cn2)n[nH]1"
7.30 to 8.00

Return reported pIC50. Input molecule: "COc1cc(OC)c(-c2cc(Nc3cnc(C#N)cn3)n[nH]2)c(OCCCN)c1"
7.30 to 8.00

* * *

system: MDA-MB-231; test: Cancer cell growth inhibition assay (CellTiter-Glo), MDA-MB-231; format: cell-based, Human; details: 72 hours, cellular ATP content; read-out: MDA-MB-231 anti cell proliferation activity (grade)
pIC50: −log10 of the molar value.
Measurement Kind: pIC50

Recall and state the measured pIC50 for N[C@@H]1CCCN(c2c(Br)cnc3[nH]cc(NC(=O)C4CC4)c23)C1 [GDC-0575, reference compound] .
6.30 to 7.00

* * *

assay: in vivo; parameters: species or system Balb/c nude mice; details: female, Balb/c nude, mouse, iv, 40 mg/kg, half-life in blood
Measurement Kind: half-life (h)
Give the value in h but do not write h after it.

Tell me measured half-life for "COc1cc(F)cc(OCCCN)c1-c1cc(Nc2cnc(C#N)cn2)n[nH]1" please.
6.1

FYI, the data here is from patent US11116767B2.
